# testedSystem: NA activity of A(H3N2)-PA/I38T (Influenza A virus, UniProt P06818)
# Type: biochemical
# cond: read-out: Oseltamivir IC50 (nM) NIA
measurementType: IC50 (nM)
# output: bare number, implied unit nM

Exercise: Checklist item: IC50 tested on NA activity of A(H3N2)-PA/I38T (Influenza A virus, UniProt P06818), entry CCOC(=O)C1=C[C@@H](OC(CC)CC)[C@H](NC(C)=O)[C@@H](N)C1 [Oseltamivir, oseltamivir] , value?
Key: 0.15
